Assign Biodistribution, Mean, Sc to each entry below.
- Tested on: grafted B16 F0 murine melanoma tumour
- test.details: Biodistribution of the ^125I-labelled molecules in the melanoma-bearing mouse (autoradiography of whole-body sections)
- details: Sc; 6 H
Where a name gives a salt, the structure may show the parent alone.
One number for each entry.

CCN(CC)CCNC(=O)c1c[nH]c2ccc(I)cc2c1=O [compound 35, dihydrochloride] : 22.27

Batch of 5 molecules: report Biodistribution, Mean, Sc for each.
1. CCN(CC)CCNC(=O)c1cc2c(I)cccc2cn1 [compound 39, dihydrochloride]
2. CCN(CC)CCNC(=O)c1ccc2cncc(I)c2n1.Cl.Cl
3. CCN(CC)CCNC(=O)c1cnc2cc(I)ccc2n1.Cl.Cl
4. CCN(CC)CCNC(=O)c1cccc2cc3cc(I)ccc3nc12 [compound 111, dihydrochloride]
5. CCCN(CCC)CCCCNC(=O)c1ccc2cc(I)ccc2n1 [compound 49, dihydrochloride]

1: 28.44; 2: 9.17; 3: 21.09; 4: 6.06; 5: 22.21
